# testProtocol: CREB reporter modulators without forskolin, primary screen, cell-based, PC12, CRE-LacZ reporter, unstimulated (AID 1145)
# condition: no forskolin, luminescence, 4.5 h, higher = more signal, called active from +8 up or from −8 down
Categories are defined by ranges of z-score, namely bin 1: < 0.07; bin 2: ≥ 0.07 and < 0.6; bin 3: ≥ 0.6

1. COC(=O)[C@@]1(Cc2ccc(F)cc2)[C@H]2c3cc(C(=O)N4CCCC4)n(Cc4ccc(S(C)(=O)=O)cc4)c3C[C@H]2CN1C(=O)c1ccccc1 | bin 2
2. C=CC[C@@]12N=C(c3ccc(OCCCO)cc3)O[C@@H]1c1ccccc1N(C)C2=O | bin 2
3. C=CCN1C(=O)[C@]2(O[C@H](CCn3cc([C@H](O)c4ccccc4)nn3)[C@@H]([Si](C)(C)c3ccc(OC)cc3)[C@@H]2C)c2ccccc21 | bin 3
4. O=C1C2C=CC(C(O)c3cc(C(F)(F)F)cc(C(F)(F)F)c3)N(n3cnnc3)C2C(=O)N1Cc1ccccc1 (stereo not given) | bin 2
5. CC(C)C[C@@H]1NC(=O)[C@@H]2C[C@H](C(=O)O)[C@H](c3cccc(OCCO)c3)N2C1=O | bin 3
6. [N-]=[N+]=NCc1ccccc1C[C@]1(C(N)=O)COC(c2ccc(OCCCO)cc2)=N1 | bin 1
7. O=C1O[C@H](c2ccccc2)[C@H](c2ccccc2)N2[C@H]1[C@@H](C(=O)N1CCCCCCC1)[C@]1(C(=O)Nc3ccc(C#CC4=CCCCC4)cc31)[C@H]2c1ccc(OCCO)cc1 | bin 2
8. O=C1NC(=O)C2C1C=CC(C(O)c1cccs1)N2Nc1ccc(Cl)cc1Cl (stereo not given) | bin 1
9. Cc1ccc(S[C@]2(C(=O)O)CC(=O)N(C(C)C)[C@@H]2c2ccc(CO)cc2I)cc1 | bin 2
10. CCOC(=O)C[C@H]1[C@H](OC(=O)c2ccc(-c3ccccc3)cc2)[C@@H](NC(=O)Cc2ccc(OC)cc2)c2cc(OCCCO)ccc2N1C(=O)c1ccccc1 | bin 1
11. CC(C)CNC(=O)[C@@]1(Cc2ccccc2I)c2ccccc2C(=O)N(C2CCCCC2)[C@H]1c1ccc(CO)cc1 | bin 1
12. C=CCNC(=O)[C@@H]1[C@H]2C(=O)O[C@H](c3ccccc3)[C@H](c3ccccc3)N2[C@H](c2ccc(O)cc2)[C@@]12C(=O)Nc1ccc(C#CCNC(N)=O)cc12 | bin 3
13. O=C(NCCN1CCOCC1)C1N=C(c2ccc(OCCCO)cc2)N(c2ccccc2)O1 (stereo not given) | bin 3
